Collected yeast fitness values appear next to each entry.
B1: tRNA (parent)
chain: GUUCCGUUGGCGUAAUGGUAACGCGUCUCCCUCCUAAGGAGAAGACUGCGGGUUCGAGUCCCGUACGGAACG

# Variants of: B1
# Assay Summary: yeast fitness relative to wild type (ratio to wild type); higher = fitter; tRNA-Arg(CCU), competitive growth, 37 C, YPD
Fewer inactive variants are shown than the library holds.
Format: numeric value only, no unit, no commentary.

Form field yeast fitness, entry A20U C60G : 0.691

The variant listed as G25C C29G has a reported yeast fitness of 0.703

get_value(item= A14G U19C G38C G44C C46A , readout=yeast fitness) returns 0.704

Reported yeast fitness of A37U A42C : 0.698

According to the records, this variant G18C A70C displays yeast fitness of 0.687

---
What the record says about C27A G58C A69C : yeast fitness is 0.719

For this variant ( A45C C60U A70G ), measured yeast fitness is 0.683
